tested on: K4 kissing-loop RNA reporter; test: apparent KD of K4 kissing-loop reporter; higher = weaker reporter binding; details: Eterna round: R107; input ligand: theophylline 20 uM
Catalogue of apparent KD of K4 kissing-loop reporter values
Kindly answer with a numeric value in µM, unit omitted.

Solved entries (count: 5):
Assign apparent KD of K4 kissing-loop reporter to the following record: AAUUUAUUAACUGAUACCAGACUUUAAUUUAUAUAUAUGUCUAGUGAUGUUAAACAUAUUGUCCCUUGGCAGCAGUAUUUAUUAA [JR_SSTheophyB_Sub020]
0.768

Name the recorded apparent KD of K4 kissing-loop reporter of the item UGAUGUUUAGGUCACCCAGUGAUGUUGGAAGGAGCGUGCGAAAGCACAGGUAGGUCGCCAACCUAAAAGUGACCUGAGCAUCUAA [#SwitchBubble 8 #K4Early] in your answer.
0.427

Give apparent KD of K4 kissing-loop reporter for UUUGGAGUGGGAGGAUAUCCUAAUAUGGGUGAUGUUAGCGAUGUUGAAGGUGUAGUGAUGUUAUGCGGAGAAGGCCCAGUGUAGA [BDazzled - #18 - Exc. FMN B]
0.273

Quick one: give measured apparent KD of K4 kissing-loop reporter for `GCCCGAAAGGGCCGAUGUGUUUGCGGCGAUCGAGGACCGGUACGGCCGCCACUCGUCGAGGCGUUCAGUGAUGUUGAAAGCAUUA`
0.354

Specify apparent KD of K4 kissing-loop reporter for `GCCGUACGCAUGGAUACCAGCGCUCGUCACCUAGCAGUGAUGUUGCUAAUGCCACGAGGACGCCCUUGGCAGCCAUGCGUACGGC` and stop.
0.0833

Please find the next sequence below.
Give the value of apparent KD of K4 kissing-loop reporter reported for the following: AAGUAGCUCUCGGCCGCCACUCCUCAGUGAUGUUGAGAUAUUAACUGCCAAUUGGCGUAUUUAAAGAGGACCGGGAGAGCUACAA [AK2 SS Tryptophan B]
0.397

----------
test system: K4 kissing-loop RNA reporter; assay: apparent KD of K4 kissing-loop reporter; higher = weaker reporter binding; conditions: Eterna round: R107; input ligand: none;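 also: bound reporter read as fluorescence of individual clusters on recovered sequencing chips by microscopy, with normalized cluster intensities fitted with a binding model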
Recorded apparent KD of K4 kissing-loop reporter for the following sequences
Form entry: value (nM) — number only.

Please supply the value of reported apparent KD of K4 kissing-loop reporter for the item UGACUGGACUGAAGGAGCGCUAAACUCCUAGUGAUGUUAGGAAAUACGAGACAAAGUCUCGGGCAGGUAGGUCGCAGUCUAGUCU [ArgBS 19 #SwitchBubble #StaticStem]
132

New cases:
# return recorded apparent KD of K4 kissing-loop reporter for input UGUCAUUGGUCGGCCGCCACUAGGACCGGGUUUUACCUAGUGAUGUUAGUAUGAACGGCCGCCACUAGGACCGGGACCGAUGACU [KL-SSTryp-B25 #DoubleAptamer]
322

Could you please provide reported apparent KD of K4 kissing-loop reporter for AGGUCACCACUACAGUGAUGUUGUGGAGAGCAGGAUAUGCAGAAAUGCAGAAGGGCUCGCUCUCGGUGACCGAAUGAAACAUUCA [Omei KL FMN A SS A v7] ? Thanks!
766

Retrieve apparent KD of K4 kissing-loop reporter measured for UGACUGGAUGGAAGGAGCGCUAAACUCCUAGUGAUGUUAGGGACACGAGACAAAGUCUUGAGGCAGGUAGGUCGCCAUCUAGUCU [FiskerMod 8 - Jieux - Same State - Arginine B] and print it.
251

Given the sequence CCUGCAGCUGUUACCGAGGGAUGCUACGGACGAGGACCGGUACGGCCGCCACUCGCCAGUGAUGUUGGUGAGGGAGGACGUUACU [KL-XTryp-A21] , write its reported apparent KD of K4 kissing-loop reporter.
109

Entry `UGGAGUUGACGAAAAGUCAACUCCCGAGAAGGAGCGGACGAAAGUCCAGGUAGGUCGCUCGCUACCAGUGAUGUUGGUACAUAAA` needs its apparent KD of K4 kissing-loop reporter filled in; supply it.
130

Provide only the value of recorded apparent KD of K4 kissing-loop reporter for AAGGGCUAGGCGGCCGCCACUUGUUGUGAACACAUACGAGCCAGUGAUGUUGGUAUUGUGUGCGGAAGGACCGGGCCUAGCCGAA [Exclusion - Tryptophan B (Freestyle 22)]
228

Given the sequence UAAUUUAUGUCUUUAAUAUAAUAAUCAGAUACCAGUGAUUUAUGACACCCUUGGCAGCUGUAUAGAGUGAUGUUCUUAUGCUUAA [JR_ExcTheophyA_Sub011] , write its reported apparent KD of K4 kissing-loop reporter.
278

----------
tested on: MS2 coat protein; assay: apparent KD of MS2 coat protein; designed switch direction (-1 OFF switch, 1 ON switch): 1; higher = weaker reporter binding; conditions: input ligand: microRNA oligo, concentration not stated
observationType: apparent KD of MS2 coat protein (nM)
# number only, unit nM dropped from output

Return reported apparent KD of MS2 coat protein. Input sequence: CUGAAAUGUCAAGGAUAUCACGUCGAUUAGACGUGAGAAGGUGAUCUACACAUGAGGAUCACCCAUGUGUUACAUGGGAGUCAG [Brourd's SSNG1/1-A2 mod 17] (Eterna round: R96, puzzle: Same State NG 1)
448

Consider the sequence GUUACAUGAGGAUCACCCAUGUAUGUGUGGGAGUAAGUGUCUUAGGAUAUCUGUUAUUUAAAUUAAGAGAAGGAAGAUUGUUGU [JMF's solution 8] (Eterna round: R96, puzzle: Same State NG 3) and give its recorded apparent KD of MS2 coat protein.
89.2

Further cases:
Supply reported apparent KD of MS2 coat protein belonging to this sequence: UUCACCUUUUUUUACAUGAGGAUCACCCAUGUUUACCCUACGUAGGAUAUCGAUGAAUGAUUGUACGAGAAGGACGUAGUAAGU [JR_SSND3_Sub057] (Eterna round: R96, puzzle: Same State NG 3)
30.5

----------
tested on: MS2 coat protein; experiment: apparent KD of MS2 coat protein, switch OFF state (with FMN for OFF switches, without FMN for ON switches); designed switch direction (-1 OFF switch, 1 ON switch): -1; higher = weaker reporter binding; details: FMN input: 0 or 200 uM; Eterna round: R93 (includes R88 designs)
observationType: apparent KD of MS2 coat protein (nM)
Answer format: numeric, nM implied, no suffix.

Completed entries (count: 2):
Quick one: give measured apparent KD of MS2 coat protein for AAGAAGUCAGGAUAUGCUUGUCGUCACAAAAGUGAUGACGAGCAGAAGGGACAUGAGGAUCACCCAUGUAAAGA [JL eternac mod 1]
41.9

Identify apparent KD of MS2 coat protein associated with the sequence AACAUACAUGAGGAUCACCCAUGUCAGGAUAUGCCGGGUUAGAGCCAACUGAAAAACCGUAGAAGGGACGAAAA [Bilbo Confounded 8 - Jieux - Exclusion 1]
79.5

***
Give recorded apparent KD of MS2 coat protein. AAAACGUGAGGAUAUGCACCAAAAAAGGUUUUUCGGGUACGACAUGAGGAUCACCCAUGUAGAAGGCACGAAAA [Frodo Flailing 14 - Jieux - Exclusion 2]
14.1

----------
tested on: MS2 coat protein; assay: apparent KD of MS2 coat protein; higher = weaker reporter binding; settings: Eterna round: R107; input ligand: tryptophan 2.4 mM
observationType: apparent KD of MS2 coat protein (µM)
Numbers only; they are read as µM.

For `CACGGACGAGUGGAUCACCCUUGUAAUAACCGAGGACCGGUACGGCCGCCACUCGAAAACCGUGACCUGUACGAAAAGUGCAGGA` , write its apparent KD of MS2 coat protein.
0.195

# return recorded apparent KD of MS2 coat protein for input GAGACGUCGGGAAGGAGCGCAUCCAAACCACACAUGAGGAUCACCCAUGUAUAAAUAUGCAUGCAGGUAGGUCGCCCGGUGUCCA [Xegeisge]
0.0861

Kindly indicate its recorded apparent KD of MS2 coat protein. Item: GAUUACAUGAGGAUCACCCAUGUAACUGAAGGAGCGGUGAUAAAGCCAGGUAGGUCGCAGAACGACAUGUGGUUCAUCCAUGUAA [#16 Exclusion - Arginine A]
0.0303

---
Give the value of apparent KD of MS2 coat protein reported for the following: ACAUGAGGAUCACCCAUGUAAUACCGGGAAGGAGCGCGUAAGGACGCAGGUAGGUCGCUCGGCGUCCGGCCGCAAGGCCGGACGA [#1 Same State - Arginine A Attempt #12 (HarryS)]
0.0147

Return apparent KD of MS2 coat protein (reported value) for this sequence: AUACCGAGUGAGUCGUGUUUCUUUUCAGAUACCAGACUUUUCGUUGUCCCUUGGCAGCUGUUUUACAUGAGGAUCACCCAUGUUG [#28 Exclusion-TheophyllineA]
0.0152

Return value of apparent KD of MS2 coat protein for input CAUUAAGUAACUGAUACCAGUGUACUGACAUGAGGAUCACCCAUGUUGGGUUUUGUUGUACACCCUUGGCAGCAGAAUCUUAAUG [AstrosExyTheB#3] , no commentary.
0.0622
